Data credit: patent US20180305460A1

target: Human CD38 (human, UniProt P28907 43-300); experiment: SPR (Biacore), antibody from supernatant captured on Protein A, human CD38 injected, 1:1 fit
Recorded Kd for the following binders
Respond with the bare value in nM.

These solved cases illustrate the format of a correct answer.
X02.106 (antibody, V domains shown, IgG4 S228P with the X02.1 VH; VL G95A relative to A02.1) VH: QLQLQESGPGLVKPSETLSLTCTVSGGSISSSSYYWSWIRQHPGKGLEWIGYIYYSGSTNYNPSLKSRVTISVDTLKNQISLRLTSVTAADTAVYYCARVGGAGGWPMDVWGQGTTVTVSS VL: QAVLTQPASLSASPGESARLTCTLPSDINVRYYNIYWYQQKPGSPPRYLLYYYSDSHKGQGSGVPSRFSGSKDVSTNSGILLISGLQSEDEADYYCMTWSSNASGVFGGGTQLTVLG | 44.7
X02.101 (antibody, V domains shown, IgG4 S228P with the X02.1 VH; VL V(66B)A relative to A02.1) VH: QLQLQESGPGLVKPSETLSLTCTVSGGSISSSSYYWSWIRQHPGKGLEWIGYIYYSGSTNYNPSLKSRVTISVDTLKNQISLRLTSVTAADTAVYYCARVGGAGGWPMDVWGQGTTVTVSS VL: QAVLTQPASLSASPGESARLTCTLPSDINVRYYNIYWYQQKPGSPPRYLLYYYSDSHKGQGSGVPSRFSGSKDASTNSGILLISGLQSEDEADYYCMTWSSNGSGVFGGGTQLTVLG | 0.0289

Next:
Ask | # get_value(readout='Kd', item= X02.105 (antibody, V domains shown, IgG4 S228P with the X02.1 VH; VL S92P relative to A02.1) VH: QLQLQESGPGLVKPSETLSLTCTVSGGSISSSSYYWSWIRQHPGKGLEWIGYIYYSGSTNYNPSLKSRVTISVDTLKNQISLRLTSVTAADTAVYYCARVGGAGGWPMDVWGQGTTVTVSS VL: QAVLTQPASLSASPGESARLTCTLPSDINVRYYNIYWYQQKPGSPPRYLLYYYSDSHKGQGSGVPSRFSGSKDVSTNSGILLISGLQSEDEADYYCMTWPSNGSGVFGGGTQLTVLG )
Reply | 33.1
